experimentalDetails: Antiviral activity against HIV I strain (LAV) in human peripheral blood mononuclear (PBM) cells; Range is 0.056 - 1.00
Assay type: functional
quantityMeasured: pEC50
Conceptually, pEC50 converts a concentration in mol/L into minus its log10.

Measured pEC50 of CCc1cn([C@H]2C[C@H](N=[N+]=[N-])[C@@H](CO)O2)c(=O)[nH]c1=O : 7.25

###

experimentalDetails: Cytotoxic effect in uninfected human peripheral blood mononuclear (PBM) cells
Please respond with reported IC50 for every item in the list.

Measured IC50 of [N-]=[N+]=N[C@H]1C[C@H](n2ccc(N)nc2=O)O[C@@H]1CO : > 400 µM

Measured IC50 of CCc1cn(C2C[C@@H](I)[C@@H](CO)O2)c(=O)[nH]c1=O (stereo not given in full) : > 100 µM

Measured IC50 of Cc1cn([C@H]2C=C[C@@H](CO)O2)c(=O)[nH]c1=O : 70 µM

Measured IC50 of Nc1ncc([C@H]2CC[C@@H](CO)O2)c(O)n1 : > 100 µM

Measured IC50 of Cc1cn([C@H]2C[C@H](I)[C@@H](CO)O2)c(=O)[nH]c1=O : > 100 µM

Measured IC50 of O=c1ccn([C@H]2C=C[C@@H](CO)O2)c(=O)[nH]1 : > 100 µM

Measured IC50 of CCc1cn(C2C[C@@H](N)[C@@H](CO)O2)c(=O)[nH]c1=O (stereo not given in full) : > 100 µM

Measured IC50 of [N-]=[N+]=N[C@@H]1CC(n2cc(I)c(=O)[nH]c2=O)O[C@@H]1CO (stereo not given in full) : > 100 µM

Measured IC50 of [N-]=[N+]=N[C@@H]1CC(n2cc(/C=C/Br)c(=O)[nH]c2=O)O[C@@H]1CO (stereo not given in full) : > 100 µM

Measured IC50 of Cc1cn([C@H]2C[C@H](N=[N+]=[N-])[C@@H](CO)O2)c(=O)nc1N : > 200 µM

Measured IC50 of [N-]=[N+]=N[C@H]1C[C@H](n2cc(Br)c(=O)[nH]c2=O)O[C@@H]1CO : > 100 µM

Measured IC50 of CCc1cn([C@H]2C[C@H](N=[N+]=[N-])[C@@H](CO)O2)c(=O)[nH]c1=O : 1000 µM

Measured IC50 of Cc1cn([C@H]2C[C@H](N=[N+]=[N-])[C@@H](CO)O2)c(=O)[nH]c1=O : 200 µM

Measured IC50 of [N-]=[N+]=NC[C@H]1OC(n2ccc(=O)[nH]c2=O)C[C@H]1O (stereo not given in full) : > 100 µM

Measured IC50 of [N-]=[N+]=N[C@H]1C[C@H](n2ccc(=O)[nH]c2=O)O[C@@H]1CO : 1000 µM

Measured IC50 of CCc1cn(C2C[C@@H](O)[C@@H](CN)O2)c(=O)[nH]c1=O (stereo not given in full) : > 10 µM

Measured IC50 of OC[C@@H]1C=C[C@H](c2cnc(O)nc2O)O1 : > 100 µM

Measured IC50 of Cc1cn([C@H]2CC[C@@H](CO)O2)c(=O)[nH]c1=O : > 100 µM

Measured IC50 of CCc1cn([C@H]2CC[C@@H](CO)O2)c(=O)[nH]c1=O : > 100 µM

Measured IC50 of Cc1cn([C@H]2C[C@H](N)[C@@H](CO)O2)c(=O)[nH]c1=O : > 100 µM
